Sourced from the supplement of paper PMC10065799

testSystem: EPHB1 (UniProt P54762)
Sequence (P54762 whole entry, looked up): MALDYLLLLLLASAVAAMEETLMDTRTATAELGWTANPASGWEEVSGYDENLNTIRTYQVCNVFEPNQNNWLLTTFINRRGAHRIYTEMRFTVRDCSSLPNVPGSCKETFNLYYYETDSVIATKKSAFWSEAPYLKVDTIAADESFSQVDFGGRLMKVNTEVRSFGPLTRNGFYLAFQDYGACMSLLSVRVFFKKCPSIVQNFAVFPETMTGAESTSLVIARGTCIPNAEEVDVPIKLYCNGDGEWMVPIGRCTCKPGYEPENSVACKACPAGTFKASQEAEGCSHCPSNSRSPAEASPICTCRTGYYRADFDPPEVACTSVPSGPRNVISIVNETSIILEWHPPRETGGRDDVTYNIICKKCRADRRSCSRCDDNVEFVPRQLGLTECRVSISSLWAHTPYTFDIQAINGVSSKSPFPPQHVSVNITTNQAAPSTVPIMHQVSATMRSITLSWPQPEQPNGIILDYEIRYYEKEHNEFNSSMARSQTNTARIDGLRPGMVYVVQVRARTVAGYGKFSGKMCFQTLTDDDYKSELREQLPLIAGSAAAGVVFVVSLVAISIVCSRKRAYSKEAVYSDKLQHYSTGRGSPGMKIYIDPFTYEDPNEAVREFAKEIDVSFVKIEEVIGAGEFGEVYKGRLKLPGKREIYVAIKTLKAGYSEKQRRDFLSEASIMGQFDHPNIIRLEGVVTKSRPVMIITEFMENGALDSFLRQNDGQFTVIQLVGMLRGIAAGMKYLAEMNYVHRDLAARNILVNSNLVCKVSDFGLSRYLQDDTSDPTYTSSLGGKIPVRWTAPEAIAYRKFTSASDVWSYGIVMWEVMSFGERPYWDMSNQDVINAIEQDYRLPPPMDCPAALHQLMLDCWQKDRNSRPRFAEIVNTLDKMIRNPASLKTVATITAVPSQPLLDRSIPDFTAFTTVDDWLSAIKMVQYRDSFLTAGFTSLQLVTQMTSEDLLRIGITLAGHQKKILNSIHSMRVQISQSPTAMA
method: phosphorylation enrichment, bacterial display (enrichment ratio); higher = better substrate or ligand; peptides without Tyr show the background;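 note: 11-residue human phosphosite peptides and single-mutation variants displayed on the E. coli surface, counted by deep sequencing, each peptide's frequency after selection divided by its frequency in the unselected input library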;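 note: frequency after pTyr selection over input frequency; kinase dosed for 20-30% of maximal phosphorylation in three min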
readoutLabel: phosphorylation enrichment
Keep the answer to the number alone.

Use the examples below as a reference point.
Just so you know, measured phosphorylation enrichment for CLAKMYFSAVE [CP_Y539_D544E_YF] came out at 0.589

Just so you know, measured phosphorylation enrichment for VRFMANTDETF [F8_Y450_Y450N] came out at 0.701

Just so you know, measured phosphorylation enrichment for NLVSEYQQYQD [TUBB3_Y422_D417N] came out at 0.582

Just so you know, measured phosphorylation enrichment for ATHRGYDLDNP [MMUT_Y146_S148L] came out at 0.459

Just so you know, measured phosphorylation enrichment for PTKNDYWAMPA [WWOX_Y287_L291P] came out at 18.6

New cases:
Just so you know, measured phosphorylation enrichment for TDHLRYFDSNK [ARAP1_Y359] came out at 0.611
